# assayText: yeast display, Sf9 membrane polyspecificity reagent, FACS + sequencing; frameworks hold sequencing errors
reportedProperty: polyreactivity (PSR sort gate)

Example entries begin here.
[[record]]
seq = "QVQLVESGAGLVQAGGSLRLCCAASGFIFRVYAMGLYRQAPGKERELVAAISDSGGSTTYADSVKGRFTISRDNAKNTVYLQMNSLKPEDTAVYYCAAKLPRSRYRGVDYWGQGTQVTVSS"
assayresult = "low polyreactivity"

[[record]]
seq = "QDQLVESGGGLVQAGGSIRLSCAASGSILRSNALGWYRQAHVQERELVAAITFNGGSTYADSVKGRFTISRDNAKNNVYLQMNSLKPVDTSVSYCATGDGPCLFDYWGQGTQVTVSS"
assayresult = "low polyreactivity"

[[record]]
seq = "QVQLVESGGGLVQAGGSLRLSCAPSGRIFSYFAMGWYRQAPGKERELVAAISGNGGSTYYADSVKGRFTISRDNAKNTVYLQMNSLKPEDTAVYYCAADWWSSDWAYLYPYSYDYWGQGTQVTVSS"
assayresult = "low polyreactivity"

[[record]]
seq = "QVQLVESGGGLVQAGGSLRLSCAASGRTFHPYAMGWYRQAPGKERELVAVITTSGSSTYYADSVKGRFTISRDNAKNTVYLQMNSLKPEDTAVYYCAALYWRHQAARYYYWGQGTQVTVSS"
assayresult = "high polyreactivity"


Query :: May I ask what polyreactivity (PSR sort gate) has been recorded for QVQLVESGGGLVQAGGSLRLSCAASGRTFETNAMGWYRQAPGKERELVASINWSGGSTYYADSVKGRFTISRDNAKNTVYLQMNSLKPEDTAVYYCAAEHSYWDWWSYYYWGQGTLVTVSS ?
Result :: low polyreactivity

Query :: May I ask what polyreactivity (PSR sort gate) has been recorded for QAQLKESGGSLVQAGGGLRLSCAASGYNSVGSVMGWYRQAPSKERELVASIDQGANTNYADSVKGRFTISRDNAKNNVYLQMNSLKPEDTAVYYCATETTYFLNYWGQGTQVTVSS ?
Result :: low polyreactivity

Query :: May I ask what polyreactivity (PSR sort gate) has been recorded for QVQLVESGGGLVQAGGSLRLSCAASGSIFTINAMGWYRQAPGIERALVAAIRSGGGTNYADSVKGRFTISRDNAKNTVYFQMNSLKPEDTAVYYCAADLWAGKYGEYDYWGQGTQVTVSS ?
Result :: high polyreactivity

Query :: May I ask what polyreactivity (PSR sort gate) has been recorded for QVQLVESGGGLVQAGGSLRLSCAASGRIFFVYAMGWYRQAPGKERELVAHIPSGGSTSYADSVKGRFTISRDNAKNTDYLQMNSLKPEDTAVYSCAARYLGYIYVYYHYTDDYWGQGTQVTVSS ?
Result :: low polyreactivity

Query :: May I ask what polyreactivity (PSR sort gate) has been recorded for QVQLVESGGGLVQAGGSLRLSCAASGFNFVYYAMGWYREAPGKERELVAVISWSGGSTNYADSVKGRFTISRDNAKNTVYLQMNSLKPEDTAVYYCAADAYAYTPYYGYRVDYWGQGTQVTVSS ?
Result :: high polyreactivity

* * *

# assayText: yeast display, Sf9 membrane polyspecificity reagent, FACS + sequencing; frameworks hold sequencing errors
reportedProperty: polyreactivity (PSR sort gate)

[[record]]
seq = "QVQIVESGRGLVQAGGSLRLSCAASGSTFKYYAMGWYIQAPGKERELVAAISWTGGSTYYADSVKGRFTISRDNAKNTVYLQMNSLKPEDTAVYYCNALGHVQGYDYWGQGTQVTVSS"
assayresult = "high polyreactivity"

[[record]]
seq = "QVQLVESGGGLVQAGGSLRLSCAASGSILYLNAMGWYRQAPGKERELVATISNGGSTNYADSVKGRFTISRDNAKNTVYLQMNSLKPEDTAVYYCAAASGGTVVGEGDYWGQGTQVTVSS"
assayresult = "low polyreactivity"

[[record]]
seq = "QVQLVESGGGLVQAGGSLRLSCAASGRIISVYAMGWYRQAPGKERELVATITGGNTNYADSVKGRFTISRDNAKNTVYLQMNSLKPEDTAVYYCAKQFLPSGVYYEYDSWGQGTQVTVSS"
assayresult = "low polyreactivity"

[[record]]
seq = "QVQLVESGGGLVQAGGSLRLSCAASGSIFEIYDMGWYRQAPGKERELVASIRTSGGSTYYADSVKGRFTISRDNAKNTVYLQMNSLKPEDTAVYYCATGWSWYHPDYDYWGQGTQVTVSS"
assayresult = "low polyreactivity"


Query :: May I ask what polyreactivity (PSR sort gate) has been recorded for QVQLVESGGGLVQAGGSLRLSCAASGFTFRTYGMGWYSQAPGKERELVAAISRSSATTYYADSVKGRFTISRDNAKTTVYLQINSLKPEDTAVYYCNAGDLGRRWGMDYSGQGTQVTVSS ?
Result :: low polyreactivity

Query :: May I ask what polyreactivity (PSR sort gate) has been recorded for QVQLVESGGGLVQAGGSLRLSCAASGFIFRGNTMGWYRQAPGKERELVAAISASGGSTYYADSVKGRFTISRDNAKNTVYLQMNSLKPEDTAVYYCNVAVIYRSRPYWYGMDYWGQGTQVTVSS ?
Result :: high polyreactivity
